# Test system: BT549
# assay remarks: In vitro cytotoxicity (WST-1), BT549
# Assay type: cell-based
# measurement parameters: spheres, 10 days
quantity: IC50 (nM)

[[record]]
compound = "COc1cccc2c1C(=O)c1c(O)c3c(c(O)c1C2=O)CC(O)(C(=O)CO)CC3OC1CC2C(OC3C(OC)OCCN23)C(C)O1 (stereo not shown)"
assay_target = "BT549"
result = 1.4


* * *

# System: SJSA-1
# assay remarks: In vitro cytotoxicity (WST-1), SJSA-1
# Format: cell-based
# measurement parameters: spheres, 5 days
quantity: IC50

[[record]]
molecule = "COc1cccc2c1C(=O)c1c(O)c3c(c(O)c1C2=O)CC(O)(C(=O)CO)CC3OC1CC2C(OC3C(OC)OCCN23)C(C)O1 (stereo not shown)"
quantity = "IC50"
result = "77 pM"

